log10(IC50) data for human AKT1 (Homo sapiens (Human), UniProt P31749) follow.
recordedEndpoint: log10(IC50) (log10 of the value in nM)

compound: NC1(c2ccc(-c3nc4n(c3-c3ccccc3)COc3ccccc3-4)cc2)CCC1 [Example 13]
log10(IC50): 1.11
//
compound: CC1(O)CC(N)(c2ccc(-c3nc4n(c3-c3ccncc3)COc3cccc(F)c3-4)cc2)C1 (stereo not drawn) [Example 7]
log10(IC50): 1.40
//
compound: N[C@]1(c2ccc(-c3nc4n(c3-c3ccncc3)COc3cccc(F)c3-4)cc2)C[C@](O)(C2CC2)C1 [Example 5]
log10(IC50): 1.34
//
compound: N[C@]1(c2ccc(-c3nc4n(c3-c3ccccc3)COc3cnccc3-4)cc2)C[C@](O)(C2CC2)C1 [Example 35]
log10(IC50): 0.20
//
compound: CC[C@]1(O)C[C@@](N)(c2ccc(-c3nc4n(c3-c3ccccc3)COc3cccnc3-4)cc2)C1 [Example 30]
log10(IC50): 1.52
//
compound: Cc1cccc2c1OCn1c-2nc(-c2ccc([C@]3(N)C[C@@](O)(C4CC4)C3)cc2)c1-c1ccccc1 [Example 26]
log10(IC50): 1.41
//
compound: COc1ccc2c(c1)OCn1c-2nc(-c2ccc(C3(N)CC(C)(O)C3)cc2)c1-c1ccccc1 (stereo not drawn) [Example 21]
log10(IC50): 0.78
//
compound: N[C@]1(c2ccc(-c3nc4n(c3-c3ccccc3)COc3cccc(F)c3-4)cc2)C[C@](O)(C2CC2)C1 [Example 1]
log10(IC50): 0.57
//
compound: CNC(=O)c1ccc2c(c1)-c1nc(-c3ccc([C@]4(N)C[C@](C)(O)C4)cc3)c(-c3ccccc3)n1CO2 [Example 52]
log10(IC50): 0.18
//
compound: NC1(c2ccc(-c3nc4n(c3-c3ccccc3)COc3cccc(Cl)c3-4)cc2)CC(O)(C2CC2)C1 (stereo not drawn) [Example 22]
log10(IC50): 0.91
//
compound: COc1ccc2c(c1)OCn1c-2nc(-c2ccc([C@]3(N)C[C@@](O)(C4CC4)C3)cc2)c1-c1ccccc1 [Example 18]
log10(IC50): 0.57
//
compound: NC1(c2ccc(-c3nc4n(c3-c3ccccc3)COc3cccc(F)c3-4)cc2)CCC1 [Example 3]
log10(IC50): 1.20
//
compound: CC1(O)CC(N)(c2ccc(-c3nc4n(c3-c3ccccc3)COc3cccc(F)c3-4)cc2)C1 (stereo not drawn) [Example 2]
log10(IC50): 0.66
//
compound: N[C@]1(c2ccc(-c3nc4n(c3-c3ccccc3)COc3ncccc3-4)cc2)C[C@](O)(C2CC2)C1 [Example 38]
log10(IC50): 0.15
//
compound: CC1(O)CC(N)(c2ccc(-c3nc4n(c3-c3ccccc3)COc3cc(C(=O)NCCO)ccc3-4)cc2)C1 (stereo not drawn) [Example 58]
log10(IC50): 0.49
